- assayed-system: UniProt:A0A097I315
- procedure-details: cell-based
- setup-conditions: Cell-based assay (EC50)
The label MET is reserved for EC50 strictly under 2 µM; NOT MET covers values equal to or above it.

# compound, label
records = [
    ("CC(C)C[C@H](NC(=O)OC[C@@H]1C[C@H]1c1cccc(F)c1)C(=O)N[C@@H](C[C@H]1CCNC1=O)C(O)S(=O)(=O)O (stereo partly shown) [Compound C5d]", "MET"),
    ("COc1ccccc1[C@@H]1C[C@H]1COC(=O)N[C@@H](CC(C)C)C(=O)N[C@@H](C[C@H]1CCNC1=O)C(O)S(=O)(=O)O (stereo partly shown) [Compound C11d]", "MET"),
    ("CC(C)C[C@H](NC(=O)OC[C@@H]1C[C@H]1C1CCCCC1)C(=O)N[C@@H](C[C@H]1CCNC1=O)C(O)S(=O)(=O)O (stereo partly shown) [Compound C15d]", "MET"),
    ("CC(C)C[C@H](NC(=O)OCC(C)(C)Sc1cccc(Cl)c1)C(=O)N[C@H](C=O)C[C@@H]1CCNC1=O [Compound D7c]", "MET"),
    ("CC(C)C[C@H](NC(=O)OCC(C)(C)Sc1ccccc1)C(=O)N[C@H](C#N)C[C@@H]1CCNC1=O [Compound D1f]", "NOT MET"),
    ("CC(C)C[C@H](NC(=O)OC[C@H]1[C@H](Cc2ccccc2)C1(F)F)C(=O)N[C@@H](C[C@H]1CCNC1=O)C(O)S(=O)(=O)O (stereo partly shown) [Compound C4d]", "NOT MET"),
    ("CC(C)C[C@H](NC(=O)OC[C@@H]1C[C@H]1Cc1ccccc1)C(=O)N[C@H](C=O)C[C@H]1CCNC1=O [Compound C3c]", "NOT MET"),
    ("CC(C)C[C@H](NC(=O)OC[C@@H]1C[C@H]1C1CCC(F)(F)CC1)C(=O)N[C@H](C=O)C[C@H]1CCNC1=O [Compound C17c]", "NOT MET"),
    ("CC(C)C[C@H](NC(=O)OCC(C)(C)Sc1cccc(Cl)c1)C(=O)N[C@@H](C[C@@H]1CCNC1=O)C(O)S(=O)(=O)O (stereo partly shown) [Compound D7d]", "MET"),
    ("[2H]C([2H])(OC(=O)N[C@@H](CC(C)C)C(=O)N[C@H](C=O)C[C@@H]1CCNC1=O)C(C)(C)Sc1ccccc1 [Compound D2c]", "NOT MET"),
    ("CC(C)C[C@H](NC(=O)OC[C@@H]1C[C@H]1CC1CCCCC1)C(=O)N[C@H](C=O)C[C@H]1CCNC1=O [Compound C16c]", "MET"),
    ("[2H]C([2H])(OC(=O)N[C@@H](CC(C)C)C(=O)N[C@@H](C[C@@H]1CCNC1=O)C(O)S(=O)(=O)[O-])C(C)(C)Sc1ccccc1.[Na+] (stereo partly shown) [Compound D2d]", "NOT MET"),
    ("[2H]C([2H])(OC(=O)N[C@@H](CC(C)C)C(=O)N[C@@H](C[C@@H]1CCNC1=O)C(O)S(=O)(=O)[O-])C(C)(C)Oc1cccc(Cl)c1.[Na+] (stereo partly shown) [Compound D14d]", "NOT MET"),
]

meta.source: paper PMC10986521
